# Tested on: HS 578T breast
# test: NCI-60 one-dose screen, 48 h (100 = growth as untreated, 0 = no growth, -100 = all killed)
# measurement_setup: 10 µM unless noted
This is part of a sample that, as a whole, favours compounds with a hit. Of some 83,000 tested, about 20% had one in any assay.
observed_property: growth (%)
Only the number, expressed in %, is required.

Data request: Name the recorded growth for NC1CC2CCCCC2CC1(O)c1ccccc1 (stereo not given) .
Data returned: 102

Data request: Name the recorded growth for O=C1NC(=O)C(=Cc2ccc(OCCCCC3CCCCC3)c(Cl)c2)C(=O)N1 .
Data returned: 105

Data request: Name the recorded growth for COc1ccc(/C=C\c2cc(OC)c(OC)c(OC)c2)cc1OCC(=O)Nc1nc2ccc(F)cc2s1 .
Data returned: 33.8

Data request: Name the recorded growth for COC(=O)C12CC(NC(=O)c3csc([C@@H](C[C@H](C(C)C)N(C)C(=O)[C@@H](NC(=O)[C@H]4CCCCN4C)C(C)C)OC(C)=O)n3)(C1)C2 .
Data returned: 35.3

Data request: Name the recorded growth for Cc1cc(-c2nc3cc(F)ccc3[se]2)cc(F)c1N .
Data returned: 102
